assay: in vitro; conditions: human, hela cells, % viability
viability at 28.5 h, 10 µM values by entry

{"Compound": "Cc1cccc(OCc2nnc(SCc3nc4ccccc4c(=O)[nH]3)o2)c1", "viability at 28.5 h, 10 µM [%]": 98.7}
{"Compound": "CC(=O)c1ccc(N2CCN(Cc3cc(C(C)(C)C)c(O)c(C(C)(C)C)c3)CC2)cc1", "viability at 28.5 h, 10 µM [%]": 87.2}
{"Compound": "O=C(NCCCn1cc(Cl)cn1)N1CCCN(Cc2cccs2)CC1", "viability at 28.5 h, 10 µM [%]": 105}
{"Compound": "CCOc1ccc(CCNC(=O)c2cnc(Nc3ccccc3OC)c3ccccc23)cc1OCC", "viability at 28.5 h, 10 µM [%]": 94.5}
{"Compound": "CCOC(=O)c1c(NC(=O)CSc2nnc(C)s2)sc2c1CCC2", "viability at 28.5 h, 10 µM [%]": 91.2}
{"Compound": "Cc1ccc(NC(=O)CN(c2ccccc2)S(=O)(=O)c2ccccc2[N+](=O)[O-])cc1C", "viability at 28.5 h, 10 µM [%]": 57.7}
{"Compound": "CCCCc1c(C)nc2ccc(Br)cc2c1SCCC(=O)O", "viability at 28.5 h, 10 µM [%]": 93.4}
{"Compound": "CC(=O)N1CCCC(c2cc3cccnc3n2CCN2CCCC2)C1 (centres unmarked)", "viability at 28.5 h, 10 µM [%]": 96.8}
{"Compound": "S=C(NCCn1cc(Br)cn1)NCc1ccco1", "viability at 28.5 h, 10 µM [%]": 95.5}
{"Compound": "COc1ccc([N+](=O)[O-])c(Oc2ccccc2OCc2ccccc2)n1", "viability at 28.5 h, 10 µM [%]": 88}
{"Compound": "CN(C)c1nc(N(C)C)nc(N(C#N)S(=O)(=O)c2ccccc2Cl)n1", "viability at 28.5 h, 10 µM [%]": 88.3}
{"Compound": "CC(=O)C12CCCCC1CC1C3CC(C)C4(O)CC(O)CCC4(C)C3CCC12C (centres unmarked)", "viability at 28.5 h, 10 µM [%]": 91.8}
{"Compound": "Cc1cc(O)c(C(C)C)cc1N1C(=O)c2ccc([N+](=O)[O-])cc2C1=O", "viability at 28.5 h, 10 µM [%]": 97.7}
{"Compound": "Cc1cccc(-c2csc3c(=O)[nH]c(N4CCC(C(=O)NCc5ccncc5)CC4)nc23)c1", "viability at 28.5 h, 10 µM [%]": 106}
{"Compound": "COC(=O)c1sc(NC(=S)Nc2ccn(C)n2)c(C(=O)OC)c1C", "viability at 28.5 h, 10 µM [%]": 99.5}
{"Compound": "CCOC(=O)C1(Cc2cc(-c3cccc(F)c3)no2)CCNCC1", "viability at 28.5 h, 10 µM [%]": 89.4}
{"Compound": "CN1CCN(C(=O)c2c(NS(=O)(=O)/C=C/c3ccccc3)sc3c2CCCC3)CC1", "viability at 28.5 h, 10 µM [%]": 94.3}
{"Compound": "O=C(c1ccccc1)N1CCCC(c2nnc(-c3cccs3)o2)C1 (centres unmarked)", "viability at 28.5 h, 10 µM [%]": 103}
{"Compound": "CCc1ccc(CNC(=O)NC2CCCc3c2cnn3CCO)s1 (centres unmarked)", "viability at 28.5 h, 10 µM [%]": 84.4}
{"Compound": "CCOc1ccc(C(C)(CC(N)=O)C(=O)O)cc1 (centres unmarked)", "viability at 28.5 h, 10 µM [%]": 97.9}
{"Compound": "O=C(NCc1ccc(OC(F)(F)F)cc1)c1cnoc1-c1ccc(F)cc1", "viability at 28.5 h, 10 µM [%]": 100}
{"Compound": "O=C(NCCN1CCOCC1)c1ccc(-c2ccco2)nc1NCc1cccnc1", "viability at 28.5 h, 10 µM [%]": 101}
{"Compound": "O=C(O)C1CNC(=O)N1C(=O)OCc1ccccc1 (centres unmarked)", "viability at 28.5 h, 10 µM [%]": 98.8}
{"Compound": "Cc1cc(COc2nc3ccccc3nc2NC[C@@H]2CCCO2)no1", "viability at 28.5 h, 10 µM [%]": 119}
{"Compound": "O=c1[nH]c2ncc(-c3cccc(Br)c3)nc2n1CCc1cccnc1", "viability at 28.5 h, 10 µM [%]": 103}
{"Compound": "NNC(=O)c1cc(-c2ccccc2)nc2ccc(Br)cc12", "viability at 28.5 h, 10 µM [%]": 102}
{"Compound": "Cc1cccc(-c2nc(=S)c3c(n2CCCN(C)C)CCCC3)c1", "viability at 28.5 h, 10 µM [%]": 102}
{"Compound": "Cc1ccc(C(=O)O)cc1NC(=S)NC(=O)c1ccc(-c2ccccc2)cc1", "viability at 28.5 h, 10 µM [%]": 92.7}
{"Compound": "CCN1CCc2nc(NC(=O)Cc3cn4ccsc4n3)sc2C1", "viability at 28.5 h, 10 µM [%]": 90}
{"Compound": "O=C(C1=C(O)C(=O)N(CCCn2ccnc2)C1c1ccccc1)c1cccs1 (centres unmarked)", "viability at 28.5 h, 10 µM [%]": 110}
{"Compound": "COc1ccc(C2(NCc3c(C)nc4sccn34)CC2)cc1", "viability at 28.5 h, 10 µM [%]": 95.2}
{"Compound": "Cc1nn(-c2cccc(C(=O)NC3CCCOC3)c2)c(C)c1Cl (centres unmarked)", "viability at 28.5 h, 10 µM [%]": 83.6}
{"Compound": "O=C(CN(c1ccccc1F)S(=O)(=O)c1ccccc1)Nc1ccccc1C(=O)O", "viability at 28.5 h, 10 µM [%]": 97.1}
{"Compound": "NCCCc1c(-c2ccc(Cl)cc2Cl)[nH][nH]c1=O", "viability at 28.5 h, 10 µM [%]": 86.8}
{"Compound": "COc1ccc(-c2cc(N3CCCN(C)CC3)n3nccc3n2)cc1", "viability at 28.5 h, 10 µM [%]": 106}
{"Compound": "COC(=O)COc1nccnc1-c1ccc(C)c(C)c1", "viability at 28.5 h, 10 µM [%]": 83.3}
{"Compound": "CC(=O)c1c2c(c(N3CCN(C#N)CC3)[nH]c1=S)CC(C)(C)OC2", "viability at 28.5 h, 10 µM [%]": 86.3}
{"Compound": "CC1(c2cc(F)ccc2F)NC(=O)N(c2ccncc2)C1=O (centres unmarked)", "viability at 28.5 h, 10 µM [%]": 92.9}

Hey, just so you know, these numbers are from paper PMC12040169.
